Values were extracted from patent US20070117743A1.

# Test system: A-549
# Measurement protocol: SRB colorimetric assay of cell growth and viability, A-549
# Type: cell-based, human
# Test context: 48 hours exposure, SRB; read-out: LC50 A-549
Where a SMILES comes first, the peptide text is derived from it. Bridges are numbered along the chain shown (N, C = ends). [ ]: non-standard residue; d: D form. The star is where a group is joined. d(aIle) = CC[C@H](C)[C@@H](N)C(=O)O; d(aThr) = C[C@@H](O)[C@@H](N)C(=O)O; Hexanoyl(5-Me) = CC(C)CCCC(=O)*; Orn = NCCC[C@H](N)C(=O)O; Dhb = C/C=C(\N)C(=O)O

Molecule: C/C=C1\NC(=O)[C@H](Cc2ccccc2)NC(=O)[C@@H](C(C)C)NC(=O)[C@@H]([C@@H](C)CC)NC(=O)[C@H](NC(=O)[C@H](NC(=O)[C@H](CCCN)NC(=O)[C@H]2CCCN2C(=O)[C@H](NC(=O)[C@@H](NC(=O)[C@H](CCCN)NC(=O)CCCC(C)C)C(C)C)C(C)C)[C@@H](C)CC)[C@@H](C)OC(=O)[C@H](C(C)C)NC1=O [Compound 57, [Orn^12, noD-Val^13]-KF] ({Hexanoyl(5-Me)}-[Orn]V[dV][dP][Orn][d(aIle)][d(aThr)][d(aIle)][dV]F[Dhb]V; ester 7-C)
Target entity: A-549
Unit string: µM
Comparison operator: ≥
CC50: 7.18
//
Molecule: C/C=C1\NC(=O)[C@H](Cc2ccc([N+](=O)[O-])cc2)NC(=O)[C@@H](C(C)C)NC(=O)[C@@H]([C@@H](C)CC)NC(=O)[C@H](NC(=O)[C@H](NC(=O)[C@H](CCCN)NC(=O)[C@H]2CCCN2C(=O)[C@H](NC(=O)[C@@H](NC(=O)[C@@H](NC(=O)[C@H](NC(=O)CC[C@@H](C)CC)C(C)C)[C@@H](C)O)C(C)C)C(C)C)[C@@H](C)CC)[C@@H](C)OC(=O)[C@H](C(C)C)NC1=O [Compound 73, [Phe(4-NO2)^3, (4S)-MeHex^14]-KF]
Target entity: A-549
Unit string: µM
Comparison operator: =
CC50: 2.76
//
Molecule: C/C=C1\NC(=O)[C@H](Cc2ccccc2)NC(=O)[C@@H](C(C)C)NC(=O)[C@@H]([C@@H](C)CC)NC(=O)[C@H](NC(=O)[C@H](NC(=O)[C@H](CCCN)NC(=O)[C@H]2CCCN2C(=O)[C@H](NC(=O)[C@@H](NC(=O)[C@H](CCC(N)=O)NC(=O)CCCC(C)C)C(C)C)C(C)C)[C@@H](C)CC)[C@@H](C)OC(=O)[C@H](C(C)C)NC1=O [Compound 58, [Gln^12, noD-Val^13]-KF] ({Hexanoyl(5-Me)}-QV[dV][dP][Orn][d(aIle)][d(aThr)][d(aIle)][dV]F[Dhb]V; ester 7-C)
Target entity: A-549
Unit string: µM
Comparison operator: ≥
CC50: 7.11
//
Molecule: C/C=C1\NC(=O)[C@H](Cc2ccc(F)cc2)NC(=O)[C@@H](C(C)C)NC(=O)[C@@H]([C@@H](C)CC)NC(=O)[C@H](NC(=O)[C@H](NC(=O)[C@H](CCCN)NC(=O)[C@H]2CCCN2C(=O)[C@H](NC(=O)[C@@H](NC(=O)[C@@H](NC(=O)[C@H](NC(=O)CC[C@@H](C)CC)C(C)C)[C@@H](C)O)C(C)C)C(C)C)[C@@H](C)CC)[C@@H](C)OC(=O)[C@H](C(C)C)NC1=O [Compound 74, [Phe(4-F)^3, (4S)-MeHex^14]-KF]
Target entity: A-549
Unit string: µM
Comparison operator: =
CC50: 3.23
//
Molecule: C/C=C1\NC(=O)[C@H](Cc2ccccc2)NC(=O)[C@@H](C(C)C)NC(=O)[C@@H]([C@@H](C)CC)NC(=O)[C@H](NC(=O)[C@H](NC(=O)[C@H](CCCNC(=O)C(F)(F)F)NC(=O)[C@H]2CCCN2C(=O)[C@H](NC(=O)[C@@H](NC(=O)[C@@H](NC(=O)[C@H](NC(=O)CC[C@@H](C)CC)C(C)C)[C@@H](C)OC(=O)C(F)(F)F)C(C)C)C(C)C)[C@@H](C)CC)[C@@H](C)OC(=O)[C@H](C(C)C)NC1=O
Target entity: A-549
Unit string: µM
Comparison operator: =
CC50: 4.55
//
Molecule: C/C=C1\NC(=O)[C@H](Cc2ccccc2)NC(=O)[C@@H](C(C)C)NC(=O)[C@@H]([C@@H](C)CC)NC(=O)[C@H](NC(=O)[C@H](NC(=O)[C@H](CCCN)NC(=O)[C@H]2CCCN2C(=O)[C@H](NC(=O)[C@@H](NC(=O)[C@@H](NC(=O)[C@H](NC(=O)CC[C@@H](C)CC)C(C)C)[C@@H](C)OC(=O)C(F)(F)F)C(C)C)C(C)C)[C@@H](C)CC)[C@@H](C)OC(=O)[C@H](C(C)C)NC1=O
Target entity: A-549
Unit string: µM
Comparison operator: =
CC50: 4.66
//
Molecule: C/C=C1\NC(=O)[C@H](Cc2ccccc2)NC(=O)[C@@H](C(C)C)NC(=O)[C@@H]([C@@H](C)CC)NC(=O)[C@H](NC(=O)[C@H](NC(=O)[C@H](CCCNC(=O)C(F)(F)F)NC(=O)[C@H]2CCCN2C(=O)[C@H](NC(=O)[C@@H](NC(=O)[C@@H](NC(=O)[C@H](NC(=O)CC[C@@H](C)CC)C(C)C)[C@@H](C)O)C(C)C)C(C)C)[C@@H](C)CC)[C@@H](C)OC(=O)[C@H](C(C)C)NC1=O
Target entity: A-549
Unit string: µM
Comparison operator: =
CC50: 5.23
//
Molecule: CC[C@H](C)[C@@H](NC(=O)[C@H](CCCN)NC(=O)[C@H]1CCCN1C(=O)[C@H](NC(=O)[C@@H](NC(=O)[C@@H](NC(=O)[C@H](NC(=O)CCCC(C)C)C(C)C)[C@@H](C)O)C(C)C)C(C)C)C(=O)N[C@H]1C(=O)N[C@H]([C@@H](C)CC)C(=O)N[C@H](C(C)C)C(=O)N[C@@H](Cc2ccccc2)C(=O)NCC(=O)N[C@@H](C(C)C)C(=O)O[C@@H]1C [Compound 65, [Gly^2]-KF] ({Hexanoyl(5-Me)}-[dV]TV[dV][dP][Orn][d(aIle)][d(aThr)][d(aIle)][dV]FGV; ester 8-C)
Target entity: A-549
Unit string: µM
Comparison operator: ≥
CC50: 6.89
//
Molecule: C/C=C1\NC(=O)[C@H](Cc2c(F)c(F)c(F)c(F)c2F)NC(=O)[C@@H](C(C)C)NC(=O)[C@@H]([C@@H](C)CC)NC(=O)[C@H](NC(=O)[C@H](NC(=O)[C@H](CCCN)NC(=O)[C@H]2CCCN2C(=O)[C@H](NC(=O)[C@@H](NC(=O)[C@@H](NC(=O)[C@H](NC(=O)CC[C@@H](C)CC)C(C)C)[C@@H](C)O)C(C)C)C(C)C)[C@@H](C)CC)[C@@H](C)OC(=O)[C@H](C(C)C)NC1=O [Compound 71, [Phe(F5)^3, (4S)-MeHex^14]-KF]
Target entity: A-549
Unit string: µM
Comparison operator: =
CC50: 3.92
